Biological target: UniProt:P11387
Sequence (whole entry): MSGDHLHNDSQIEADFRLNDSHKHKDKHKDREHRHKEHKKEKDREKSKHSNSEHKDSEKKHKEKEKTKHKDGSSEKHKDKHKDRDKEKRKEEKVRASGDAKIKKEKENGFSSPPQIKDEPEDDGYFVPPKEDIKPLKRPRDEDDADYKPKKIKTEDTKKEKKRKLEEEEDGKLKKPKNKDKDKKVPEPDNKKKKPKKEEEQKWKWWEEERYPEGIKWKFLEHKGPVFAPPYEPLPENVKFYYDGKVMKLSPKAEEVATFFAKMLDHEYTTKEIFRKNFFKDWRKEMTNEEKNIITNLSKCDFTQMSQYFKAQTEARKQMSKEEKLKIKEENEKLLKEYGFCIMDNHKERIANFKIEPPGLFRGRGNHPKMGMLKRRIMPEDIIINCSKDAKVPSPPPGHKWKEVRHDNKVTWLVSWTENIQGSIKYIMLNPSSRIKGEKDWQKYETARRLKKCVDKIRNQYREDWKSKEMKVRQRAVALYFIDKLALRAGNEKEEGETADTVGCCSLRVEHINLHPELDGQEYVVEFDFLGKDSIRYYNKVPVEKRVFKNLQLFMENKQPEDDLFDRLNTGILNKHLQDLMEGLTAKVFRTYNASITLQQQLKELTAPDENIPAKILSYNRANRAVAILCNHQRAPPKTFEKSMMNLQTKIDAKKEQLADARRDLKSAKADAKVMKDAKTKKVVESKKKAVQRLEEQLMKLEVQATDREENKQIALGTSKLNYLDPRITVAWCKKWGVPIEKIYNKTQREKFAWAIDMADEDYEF
Assay: Inhibition of DNA topoisomerase 1-mediated supercoiled DNA relaxation at 0.1 mg/mL by agarose gel electrophoresis
The source made the active and inactive calls. No cut-off for these calls is given here.
recordedEndpoint: inhibition

[
  {
    "smilesStructure": "CN1CCN(c2nc3c(c4ccccc24)C(=O)c2ccccc2-3)CC1",
    "recordedEndpoint": "inhibition",
    "measurement": "Active"
  },
  {
    "smilesStructure": "CCN1CCN(c2nc3c(c4ccccc24)C(=O)c2ccccc2-3)CC1",
    "recordedEndpoint": "inhibition",
    "measurement": "Active"
  },
  {
    "smilesStructure": "O=C1c2ccccc2-c2nc(N3CCNCC3)c3ccccc3c21",
    "recordedEndpoint": "inhibition",
    "measurement": "Active"
  }
]
